readout-kind: logP

INSERT INTO measurements (compound, readout_kind, measurement) VALUES
  ('Cc1c(C#N)sc(S(C)=O)c1-c1ccc(Cl)cc1 (configuration not stated)', 'logP', 3.8),
  ('CCC(=O)c1ccc(S(=O)CC)c([N+](=O)[O-])c1 (configuration not stated)', 'logP', 2.8),
  ('Cc1sc(S(C)=O)c([N+](=O)[O-])c1C (configuration not stated)', 'logP', 2.65),
  ('CC(C)CS(=O)c1sccc1[N+](=O)[O-] (configuration not stated)', 'logP', 2.93),
  ('CS(=O)c1sc(C#N)c(Cl)c1C#N (configuration not stated)', 'logP', 2.15),
  ('CCS(=O)c1ccc(Cl)cc1S(C)(=O)=O (configuration not stated)', 'logP', 2.31),
  ('CS(=O)c1sc(C#N)cc1C#N (configuration not stated)', 'logP', 1.31),
  ('CS(=O)c1nc(-c2ccccc2)cc(C(F)(F)F)n1 (configuration not stated)', 'logP', 3.01),
  ('CCS(=O)c1ccc([N+](=O)[O-])cn1 (configuration not stated)', 'logP', 1.74),
  ('CS(=O)c1sccc1Br (configuration not stated)', 'logP', 1.71),
  ('CCCCS(=O)c1sc(C#N)c(Cl)c1C#N (configuration not stated)', 'logP', 3.44),
  ('CS(=O)c1ccc([N+](=O)[O-])s1 (configuration not stated)', 'logP', 1.4);

From: the OPERA property sets (Mansouri et al. 2018)
